reported property: melting point (°C)

molecule | unit label | melting point
Cc1cccc(-c2n[nH]cc2Cl)c1 | °C | 109
COC(=O)C(c1ccccc1)N1CCN(c2ccc([N+](=O)[O-])cc2)CC1 (stereo not given) | °C | 92
CCSc1nsc(NC(=O)N(C)C)c1C#N | °C | 198

[P] O=S1(=O)c2cccc3cccc(c23)N1CCN1CCN(c2ccc(O)cc2)CC1
[Q] C=C(C)C(=O)OCCC#Cc1ccc(-c2ccc(OC(=O)C(=C)C)cc2)cc1
[R] COCCOc1ccc2c(C(c3cccc(NC(=O)OCc4ccccc4)c3C)C(C)[N+](=O)[O-])c[nH]c2c1 (stereo not given)
Reorder: melting point, max to min. Please list the labels according to the requested order. P, R, Q
(P: 235 °C, R: 140 °C, Q: 80 °C)
